meta.source: the nanobody polyreactivity screen of Harvey et al. (2022)

# experimental protocol: yeast display, Sf9 membrane polyspecificity reagent, FACS + sequencing; frameworks hold sequencing errors
readout label: polyreactivity (PSR sort gate)

Consider the reported polyreactivity (PSR sort gate) for these sequences:
sequence=QVQLVESGGGLVQAGGSLRLSCAASGFIFEHYAMGWYRQAPVKERELVARISWRGGSTYYADSVKGRFTISRDNAKNTVYLQMNRLKPEDTAVYYCNALEVVYFGYYPSDYWGQGTQVTVSS reported_value="low polyreactivity"
sequence=QVQLVESGGGLVQAGGSLRLSCAASGSIFFKNVMGWYRQAPGKERELVAAITWSGGSTYYADSVKGRFTISRDNAKNTVYLQMNSLKPEDTAVYYCNARRSKGMYYWGQGTQVTVSS reported_value="high polyreactivity"
sequence=QVQLVESGGGLVQAGGSLRLSCAASGRIFIIYAMGWYRQAPGKERELVAAINRGATTNYADSVKGRFTISRDNAKNTVYLQMNSLKPEDTAVYYCAARGVAKLRRVGYWGQGTQVTVSS reported_value="high polyreactivity"
sequence=QVQLVESGGRLVQAGGSLRLSCAASGSIFAWSMGWYRPAPGKERELVAAISSGGSTYYADSVKGRFTISRDNAKNTVYFQMNSLKPEDTAVYYCAAGLISRFSRYYFWGQGTQVTVSS reported_value="high polyreactivity"
sequence=QVQLVESGGGLDQAGGSLRLSCAASGFIFGPNAMGWYRQAPGKERELVAAISWIGSSTYYADSVKGRFTISRDNAKNTVYIKMNSLTPEDTPVYYCAADSSERRLLDFDYWGQGTQVTVSS reported_value="low polyreactivity"
sequence=QVQLVESGGGLVQAGGSLRLSSAASGFTFLYNAMGWYRQAPGKERELVASIRTGTGTYYADSVKGRFTISRDNAKNNVYLQMISLKPEDTAVYYCAADYRYKSQWWYRRFDYWGQGTQVNVSS reported_value="high polyreactivity"
sequence=QVQLVESGGGLVQAGGSLRLSCAASGNTFGLYAMGWYIQAPGKERELVAAIRRGGRTYADSVKGRFTISRDNAKNTVYGQMNSLKPEDTAVYYCAAYYVFLDNDYWGQGSQVTVSS reported_value="high polyreactivity"
sequence=QVQLVESGGGLVQAGGSLRLSCAATGRIFRYYAMGLYRQAPGNERELVAAIRRGGSTTYADSVKGRFTISRDNAKNTFYLQMNSLKPEDTAVYYCAATQYYRGYDYWGQGSQVTVSS reported_value="high polyreactivity"
sequence=QVQLVESGGGLVQAGCSLRLSCAASGITFELYAMGSYRQAPGKERELVAAISSNGGITFYADSVKGRFTISRDYAKNTVYLQMKSLKPEDTEVYYCAARYVRYPRYDYWGQGTQVTVSS reported_value="high polyreactivity"
sequence=QVQLVESGGGLVQAGGSLRLSCAASGSTFRANAMGWYRQAPGKERELVAAISQSGGITYYADSVKGRFTISRDNAKNTVYLQMNSLKPEDTAVYYCAALGYRIKRGRFYYWGQGTQVTVSS reported_value="high polyreactivity"

For the sequence shown here, "QVQLVESGGGLVQAGGSLRLSCAASGFTFSYYAMGWYRQAPGKERELVAAITSTGGSTYYADSVKGRFTISRDNAKNTVYLQMNSLKPEDTAVYYCATRGANRTGYKDDYWGQGTQVTVSS" , give the reported polyreactivity (PSR sort gate).
high polyreactivity

###

# experimental protocol: yeast display, Sf9 membrane polyspecificity reagent, FACS + sequencing; frameworks hold sequencing errors
readout label: polyreactivity (PSR sort gate)

Consider the reported polyreactivity (PSR sort gate) for these sequences:
sequence=QVQLVDSGGGLVQAGGSLRLSCAASGRNFLWNAMGWDRQAPGKERELVAGISWRGSSTYYAVSVKGRFTISRDNAKNTVYLQMNSLKPEDTAVYYCAAQGRPYRGQRTGAYGYWGQGTQVTVSS reported_value="high polyreactivity"
sequence=QVQLVESGGGLVQAGGSLRLSCAASGSTFYIYAMGWYRQATGKERELVAAIDWNDGSTYYADSVKGRFTISRDNAKNTVYLEMHSLKPEDTAVYYCAAAIYIYRDGTYDYWGQGTQETVSS reported_value="high polyreactivity"
sequence=QVQLVESGGGLVQAGGSLRLSCAASGYTFGFYTRGWYRQAPGKERELVAGISWSGGSTYYADSVKGRFTISRDNAKNTVYLQMNSLKPEDTAVYYCATRWRGRYDYWGQGTQVTVSS reported_value="high polyreactivity"
sequence=QVQLVESGGGLVQAGGSLRIICAASGRIFSNYAMGWYRQAPGKERELVAAITYSTSRTYYADSVKGRFTISRDNAKNTVYLHMNSLKPEDTAVDYCAAGRGPYYRSRTPLYYWGQGTQVTVSS reported_value="high polyreactivity"
sequence=QVQLVESGGGLVQAGGSLRISCAPSGFIYSYAMGWYRQAPGKERELVASITLNGGSTYYADSVKGRFTISRDNAKNTVYLQMNSLKPEDTAVYYCNADRASLSIGGYYRLWYDYWGQGTQVTVSS reported_value="high polyreactivity"

For the sequence shown here, "QVQLVESGGGLVQAGGSLRLSCAASGSIFDTNAMGWYIQAPGKEREFVGTITNSGGRTYYADSVKGRFTISRDNAKNTVYLQMNSLKPEDTAVYYCNADVHRFSGNGYRYYYWGQGTQVTVSS" , give the reported polyreactivity (PSR sort gate).
low polyreactivity

For the sequence shown here, "QVQLVESGGGLVQAGGSLRLSCAASGRTFGWYAMGSYRQAPGKERELVAAITSGTSTYYADSVKGRFTISRDNAKYTVYLQMNSRKPEDTAVYYCAVDRGISVGYTRFDYWGQGTQVTVSS" , give the reported polyreactivity (PSR sort gate).
low polyreactivity

For the sequence shown here, "QVQLVESAGGLVQAGASLRLSCAASGLIYRKYSMGWYRQAPGKERELVAAISSGGDTNYADSVKGLFTISRDNAKNTVYLQMNSLKPEDTAVYYCNADRKYWYGIALEYWGQGTQVTVSS" , give the reported polyreactivity (PSR sort gate).
high polyreactivity

For the sequence shown here, "QVQLVESGGGLVQAGGSLRLSCAASGRTFRYYAMGWYRQAPGKERELVAAITSGGSTYYADSVKGRFTISRDNAKNTVYLQMNSLKPEDTAVYYCNAFFATGVDYWGQGTQVTVSS" , give the reported polyreactivity (PSR sort gate).
high polyreactivity

For the sequence shown here, "QVQLVESGGGLVQAGGSLRLSCAASGSIIYFYAMGWYRPAPGKERELVAAISITSASTYYADSVKGRFTISRDNAKNTVYLQMNSLKPEDTAVYYCAAEYYYVDWIYDYWGQGTQVTVSS" , give the reported polyreactivity (PSR sort gate).
high polyreactivity

###

# experimental protocol: yeast display, Sf9 membrane polyspecificity reagent, FACS + sequencing; frameworks hold sequencing errors
readout label: polyreactivity (PSR sort gate)

sequence=QVQLVESGGGLVQAGGSLRLSCAASGGTFSRNVMGCYRPAPGKERELVSAISRRGSSTYYADSVKGRFTISRDNAKNTVFLQMNSLKPEDTAVYYCARDQFTGADEAGDDYWGQGTQVTVSS readout_label="polyreactivity (PSR sort gate)" reported_value="high polyreactivity"
sequence=QVQLVESGGGLVQAGGSLRLSCAASGRTLGKYAMGWYRQAPGKERELVAAIRWTGGNTYYADSVKGRFTISRDNAKNTVYLQMNSLKPEDPAGYYCNAVSFGRARHGGPVYGYDYWGQGTQVTVSS readout_label="polyreactivity (PSR sort gate)" reported_value="high polyreactivity"

###

# experimental protocol: yeast display, Sf9 membrane polyspecificity reagent, FACS + sequencing; frameworks hold sequencing errors
readout label: polyreactivity (PSR sort gate)

Consider the reported polyreactivity (PSR sort gate) for these sequences:
sequence=QVQLVESGGGLVQAGGSLRLSCAASGSTFKRYSMGWYRQAPGKERELVASISGRGGGTYYADSVKGRFTISRDNEKNTVYLQMNSLIPEDTAVYYCAAYGRYYGFDYWGLGTQVTVSS readout_label="polyreactivity (PSR sort gate)" reported_value="high polyreactivity"
sequence=QDQLVESGGGLVQAGGSLRLSCAASGGIFPAYAMGWYSQAPGKERELVASISANGGRTYYADSVKGRFTISRDNAKNTVYLQMNSLKPEDTAVYYCNKRWLHWSGYDYWGQGTQVTVSS readout_label="polyreactivity (PSR sort gate)" reported_value="high polyreactivity"
sequence=QVQLVESGGGLVQAGGSLRLSCAASGTIFDAYAMGWYRQAPGKERELVAAISLDDGSTYYADSVKGRFTISRDNAKNTVYLQMNSLKPEDTAVYYCAADYYVRSQHLYATSGNYWGQGTQVTVSS readout_label="polyreactivity (PSR sort gate)" reported_value="high polyreactivity"
sequence=QVQLVESGGGLVQAGGSLRLSCAASGIIFSAYAMGWYRQPPGKERELVAVIDSDGDGTYYADSVKGRFTISRDNAKNTVYLQMNSLKPEDTAVYYCAADYEYTRVEGWFIGFDEYGYWGQGTQVTVSS readout_label="polyreactivity (PSR sort gate)" reported_value="low polyreactivity"
sequence=QVQLVESGGGLVQAGGSLRLSCAASGNILEGYTMGWYRQAPGQERELVATISGRGGSTYYADSVKGRFTMSRDNAKNTVYLQMHSLKPEDTAVYYCNALPWALYESTSIYYYWGQGTQVTVSS readout_label="polyreactivity (PSR sort gate)" reported_value="low polyreactivity"

For the sequence shown here, "QVQLVESGGGLVQAGGILRLSCAASGRIFKDNAMGWYRLAPGKERELVATIDSGGDTNYADSVKGRFTISRDNAKNTVYLQMNSLKPEDTAVYYSNTEGFLSAVYAFGYWGQGTQVTVSS" , give the reported polyreactivity (PSR sort gate).
low polyreactivity

For the sequence shown here, "QVQLVESGGGLVQAGGSLRLSCAASGSTFSSYAMGWYRQAPGKERELVAAISTRSGSTYYADSVKGRFTISRDNAKNTVYLQMNSLKPEDTAVYYCAADGFYYDDGYWGQGTQVTVSS" , give the reported polyreactivity (PSR sort gate).
low polyreactivity

For the sequence shown here, "QVQLVESGGGLVQAGGSLRLSCAASGSTFYINTMGWYRQAPGKEREFVAAITWSGGSTYYADSVKGRFTISRDNAKNTVYLQMNSLKPEDTAVYYCAADLYVGDMDYWGQGTQVTVAS" , give the reported polyreactivity (PSR sort gate).
low polyreactivity

For the sequence shown here, "QVQLVESGGGLVQAGGSLRLSSAASGSTFGYYAMGWYRQPPGKERELVAAISSSAGTTYYADSVKGCFTISRDNAKNTVYLQMNSLKPEDTAVYYCAADAVSGREYWGQGTQVTVST" , give the reported polyreactivity (PSR sort gate).
low polyreactivity

For the sequence shown here, "QVQLVESGGGLVQAGGSLRLSCAASGRIIYKYAMGWYRQAPGKERELVAAISYSGGSTYYADSVKGRFTISRDNAKNTVYLQMKSLKPEDTAVYYCNAKPPYGVRSWGDYWGQGTQVNVSS" , give the reported polyreactivity (PSR sort gate).
low polyreactivity

For the sequence shown here, "QVQLVESGGGLVQAGGSLRLSCAASGRTFENYAMGWYRQAPGKERELVAAISKSGGSTYYADSVKGRFTISRDNAKNTVYLQMNSLKPEDTAVYYCATRLTSAVGRYLYDFGYWGQGTQVTVSS" , give the reported polyreactivity (PSR sort gate).
high polyreactivity
